Tested on: CP215
Assay: qHTS profiling for inhibitors of Plasmodium falciparum proliferation (AID 504749); further: nearly all actives have a fitted effect of over 60% in size
Conditions: P. falciparum in erythrocytes, SYBR Green DNA, 72 h; series mostly up to 28.7 µM
Procedure: NIH National Institute of Allergy and Infectious Diseases [NIAID] NIH Chemical Genomics Center [NCGC] […] Because mature erythrocytes lack DNA, only Plasmodium-derived DNA is detected. NCGC Assay Protocol Summary: The SYBR Green viability assay was adapted from a method described previously (Plouffe et al., 2008). […] The following morning, fluorescence intensity at 485(14) nm excitation and 535(25) nm emission wavelengths was measured on an EnVision (Perkin Elmer) plate reader. […]
Inconclusive results are not listed. The source made the active and inactive calls. The call rests on the fitted dose curve; in most records, active means well fitted inhibition curve with a large enough effect; inconclusive means small, poorly fitted or top-dose-only effect; inactive means flat fitted curve, though single readings scatter.
resultType: outcome

>>> result("C[C@@H](C(=O)O)c1ccc(C(=O)c2cccs2)cc1")
"inactive"
>>> result("COc1c(O)cc2c(c1O)[C@@H]1O[C@@H](CO)[C@@H](O)[C@@H](O)[C@@H]1OC2=O")
"inactive"
>>> result("O=c1[nH]c(=O)n([C@@H]2C[C@H](O)[C@H](CO)O2)cc1I")
"inactive"
>>> result("COc1ccccc1OC[C@H](O)COC(N)=O")
"inactive"
>>> result("C[C@@H]1c2cccc(O)c2C(O)=C2C(=O)[C@@]3(O)C(O)=C(C(N)=O)C(=O)[C@@H](N(C)C)[C@@H]3[C@@H](O)[C@@H]21")
"inactive"
